Parameter: pKd. Scope: all listed entries.
# assayed_system: HLA-A*33:01
# assay_comment: IEDB peptide-MHC binding, purified MHC/competitive/radioactivity; filed as Kd, often an IC50 or EC50 that approximates it; bounds were set here for any values at or beyond the usual limits of such assays
# experimental_conditions: source organism: Vaccinia virus WR
pKd: −log10 of the molar value.

{"residue_codes": "AALDGTFQRK", "assayed_system": "HLA-A*33:01", "relational_operator": "≤", "pKd": 4.15}
{"residue_codes": "MSHLKVALYR", "assayed_system": "HLA-A*33:01", "relational_operator": "=", "pKd": 7.18}
{"residue_codes": "FTLNHVLALK", "assayed_system": "HLA-A*33:01", "relational_operator": "=", "pKd": 5.77}
{"residue_codes": "YIWIKNLETY", "assayed_system": "HLA-A*33:01", "relational_operator": "=", "pKd": 5.35}
{"residue_codes": "QMRTPLHKY", "assayed_system": "HLA-A*33:01", "relational_operator": "≤", "pKd": 4.11}
{"residue_codes": "IVQLPKRGVR", "assayed_system": "HLA-A*33:01", "relational_operator": "=", "pKd": 4.90}
{"residue_codes": "GLSLQDYCY", "assayed_system": "HLA-A*33:01", "relational_operator": "=", "pKd": 5.06}
{"residue_codes": "SFIISTLNK", "assayed_system": "HLA-A*33:01", "relational_operator": "=", "pKd": 5.09}
{"residue_codes": "ETAKVIKLVK", "assayed_system": "HLA-A*33:01", "relational_operator": "≤", "pKd": 4.15}
{"residue_codes": "ISYCRAFIY", "assayed_system": "HLA-A*33:01", "relational_operator": "=", "pKd": 5.45}
{"residue_codes": "FLLFLEITY", "assayed_system": "HLA-A*33:01", "relational_operator": "=", "pKd": 5.14}
{"residue_codes": "VLCVKKFYK", "assayed_system": "HLA-A*33:01", "relational_operator": "=", "pKd": 6.79}

----------
# assayed_system: HLA-A*31:01
# assay_comment: IEDB peptide-MHC binding, purified MHC/direct/fluorescence; filed as Kd, often an IC50 or EC50 that approximates it; bounds were set here for any values at or beyond the usual limits of such assays
# experimental_conditions: source organism: SARS-CoV1
pKd: −log10 of the molar value.
value_kind: pKd

{"residue_codes": "KVIQPRVEK", "measured_value": 6.37}
{"residue_codes": "KMSEYKGPV", "measured_value": 5.68}

----------
# assayed_system: HLA-B*15:01
# assay_comment: IEDB peptide-MHC binding, purified MHC/competitive/fluorescence; bounds were set here for any values at or beyond the usual limits of such assays
# experimental_conditions: source organism: Vaccinia virus Copenhagen

{"residue_codes": "LAKAIITPI", "assayed_system": "HLA-B*15:01", "units_label": "µM", "IC50": 24.5}

----------
# assayed_system: HLA-A*01:01
# assay_comment: IEDB peptide-MHC binding, purified MHC/competitive/radioactivity; filed as Kd, often an IC50 or EC50 that approximates it; bounds were set here for any values at or beyond the usual limits of such assays
# experimental_conditions: source organism: Lymphocytic choriomeningitis virus (strain Armstrong)
pKd: −log10 of the molar value.
Parameter: pKd. Scope: all listed entries.
value_kind: pKd

{"residue_codes": "ESFVRKQKY", "assayed_system": "HLA-A*01:01", "value_kind": "pKd", "relational_operator": "=", "measured_value": 4.97}
{"residue_codes": "FQPQNGQFI", "assayed_system": "HLA-A*01:01", "value_kind": "pKd", "relational_operator": "≤", "measured_value": 4.11}

----------
# assayed_system: HLA-A*02:03
# assay_comment: IEDB peptide-MHC binding, purified MHC/direct/fluorescence; filed as Kd, often an IC50 or EC50 that approximates it; bounds were set here for any values at or beyond the usual limits of such assays
# experimental_conditions: source organism: Rickettsia sibirica 246
pKd: −log10 of the molar value.
value_kind: pKd

{"residue_codes": "EFVSANLAM", "assayed_system": "HLA-A*02:03", "value_kind": "pKd", "measured_value": "≤ 4.70"}

----------
# assayed_system: HLA-B*15:01
# assay_comment: IEDB peptide-MHC binding, purified MHC/competitive/fluorescence; filed as Kd, often an IC50 or EC50 that approximates it; bounds were set here for any values at or beyond the usual limits of such assays
# experimental_conditions: source organism: Human immunodeficiency virus 1
value_kind: Kd

{"residue_codes": "KSLYNTIATLY", "measured_value": "≥ 20 µM"}

----------
# assayed_system: HLA-A*31:01
# assay_comment: IEDB peptide-MHC binding, purified MHC/competitive/radioactivity; filed as Kd, often an IC50 or EC50 that approximates it; bounds were set here for any values at or beyond the usual limits of such assays
# experimental_conditions: source organism: Dengue virus 1 Singapore/S275/1990
pKd: −log10 of the molar value.
value_kind: pKd

{"residue_codes": "RIMQRGLLGR", "value_kind": "pKd", "measured_value": 8.94}
{"residue_codes": "NMLNIMNRR", "value_kind": "pKd", "measured_value": 5.27}

----------
# assayed_system: HLA-B*58:01
# assay_comment: IEDB peptide-MHC binding, purified MHC/direct/fluorescence; filed as Kd, often an IC50 or EC50 that approximates it; bounds were set here for any values at or beyond the usual limits of such assays
# experimental_conditions: source organism: West Nile virus strain PTRoxo

{"residue_codes": "MTRGLLGSY", "assayed_system": "HLA-B*58:01", "Kd": "≥ 20 µM"}

----------
# assayed_system: HLA-B*46:01
# assay_comment: IEDB peptide-MHC binding, purified MHC/direct/fluorescence; filed as Kd, often an IC50 or EC50 that approximates it; bounds were set here for any values at or beyond the usual limits of such assays
# experimental_conditions: source organism: Rickettsia sibirica 246
pKd: −log10 of the molar value.

{"residue_codes": "EFVSANLAM", "pKd": "≤ 4.70"}

----------
# assayed_system: HLA-A*33:01
# assay_comment: IEDB peptide-MHC binding, purified MHC/competitive/radioactivity; filed as Kd, often an IC50 or EC50 that approximates it; bounds were set here for any values at or beyond the usual limits of such assays
# experimental_conditions: source organism: Dengue virus 3 Martinique/1243/1999
pKd: −log10 of the molar value.
value_kind: pKd

{"residue_codes": "GTLGLECSPR", "assayed_system": "HLA-A*33:01", "value_kind": "pKd", "measured_value": 7.63}

----------
# assayed_system: HLA-B*07:02
# assay_comment: IEDB peptide-MHC binding, purified MHC/direct/fluorescence; filed as Kd, often an IC50 or EC50 that approximates it; bounds were set here for any values at or beyond the usual limits of such assays
# experimental_conditions: source organism: Yellow fever virus
pKd: −log10 of the molar value.

{"residue_codes": "FHKRDMRLL", "pKd": "≤ 4.70"}

----------
# assayed_system: HLA-A*11:01
# assay_comment: IEDB peptide-MHC binding, purified MHC/direct/fluorescence; filed as Kd, often an IC50 or EC50 that approximates it; bounds were set here for any values at or beyond the usual limits of such assays
# experimental_conditions: source organism: Influenza A virus (A/tern/Australia/1/04(H2N5))

{"residue_codes": "LLTEVETYV", "assayed_system": "HLA-A*11:01", "Kd": "≥ 20 µM"}

----------
# assayed_system: HLA-A*26:01
# assay_comment: IEDB peptide-MHC binding, purified MHC/competitive/radioactivity; filed as Kd, often an IC50 or EC50 that approximates it; bounds were set here for any values at or beyond the usual limits of such assays
# experimental_conditions: source organism: Mammarenavirus lassaense
value_kind: Kd

{"residue_codes": "AGFVAGLTY", "measured_value": "≥ 77.9 µM"}

----------
# assayed_system: HLA-A*03:01
# assay_comment: IEDB peptide-MHC binding, purified MHC/direct/fluorescence; filed as Kd, often an IC50 or EC50 that approximates it; bounds were set here for any values at or beyond the usual limits of such assays
# experimental_conditions: source organism: Escherichia coli O157:H7
pKd: −log10 of the molar value.
Parameter: pKd. Scope: all listed entries.
value_kind: pKd

{"residue_codes": "VTRQIHNPR", "value_kind": "pKd", "relational_operator": "=", "measured_value": 4.94}
{"residue_codes": "WLSVIAFGK", "value_kind": "pKd", "relational_operator": "=", "measured_value": 5.79}
{"residue_codes": "LLDPLYFEV", "value_kind": "pKd", "relational_operator": "≤", "measured_value": 4.70}

----------
# assayed_system: HLA-A*02:12
# assay_comment: IEDB peptide-MHC binding, purified MHC/competitive/fluorescence; filed as Kd, often an IC50 or EC50 that approximates it; bounds were set here for any values at or beyond the usual limits of such assays
# experimental_conditions: source organism: Cryptosporidium parvum Iowa II

{"residue_codes": "RGRKPIFRK", "assayed_system": "HLA-A*02:12", "Kd": "≥ 20 µM"}

Sourced from the Immune Epitope Database (IEDB)
